All values here come from patent US4097591A.

target: thrombin (Bos taurus); construct: clotting of bovine fibrinogen; experiment: fibrinogen coagulation time (prolongation by a factor of two); assay type: biochemical; conditions: pH 7.4, first table (Sample Nos. 1-235); bovine fibrinogen, thrombin 5 units/ml, pH 7.4, 25° C; read-out: Concentration required to prolong the coagulation time by a factor of two
measurementName: IC (2-fold clotting time) (µM)

INSERT INTO measurements (compound, measurementunit, observedresult) VALUES
  ('Cc1ccc2ccc(S(=O)(=O)N[C@@H](CCCNC(=N)N)C(=O)N3CCC(C(C)C)CC3C(=O)O)cc2c1 (stereo partly shown) [compound 175]', 'µM', 0.1),
  ('COc1ccc2ccc(S(=O)(=O)N[C@@H](CCCNC(=N)N)C(=O)N3CCOCC3C(=O)O)cc2c1 (stereo partly shown) [compound 189]', 'µM', 2),
  ('COc1cc2ccc(S(=O)(=O)N[C@@H](CCCNC(=N)N)C(=O)N(CC(=O)O)Cc3ccccc3)cc2cc1OC [compound 50]', 'µM', 2.5),
  ('COCCN(CCC(=O)O)C(=O)[C@H](CCCNC(=N)N)NS(=O)(=O)c1ccc2cc(OC)c(OC)cc2c1 [compound 15]', 'µM', 2.5);
